Target: BRD4 bromo domain 1 [BRD4(1)] (Homo sapiens, UniProt O60885)
Construct: N-terminally His6-tagged BRD4(1) (amino acids 67-152)
Experiment: BRD4/acetylated peptide H4 binding assay (TR-FRET), BRD4 bromo domain 1
Settings: inhibition of BRD4(1)/Ac-H4 peptide interaction
pIC50: −log10 of the molar value.
Use yes (1) when the recorded pIC50 is no lower than 7; use no (0) when it is lower.

• C[C@@H]1C(=O)N(C)c2ccc(Nc3cccc(S(=O)(=O)N4CCCC4)c3)nc2N1C1CCN(C)CC1 = yes (1)
• COc1ccc(C(=O)N[C@H]2CC[C@H](N3CCN(CC4CC4)CC3)CC2)cc1Nc1ccc2c(n1)N(C1CCOCC1)[C@H](C)C(=O)N2C [Example 87] = no (0)
• Cc1cccc(N2c3nc(Nc4cccc(S(=O)(=O)NC5CCN(C)CC5)c4)ccc3N(C)C(=O)C2C)c1 (stereo not shown) = no (0)

Could you please find out whether COCCN1c2nc(Nc3cccc(C(=O)NC4CCN(C)CC4)c3)ccc2N(C)C(=O)C1C (racemic) has pIC50 that meets 7 or exceeds it?
no (0)

Could you please find out whether CC1C(=O)N(C)c2ccc(N(C)c3cccc(S(=O)(=O)N(C)C)c3)cc2N1Cc1ccccc1 (stereo not shown) has pIC50 that meets 7 or exceeds it?
no (0)

Could you please find out whether C[C@@H]1C(=O)N(C)c2ccc(Nc3cccc(S(=O)(=O)N(C)C)c3)cc2N1Cc1ccccc1 has pIC50 that meets 7 or exceeds it?
no (0)

Could you please find out whether COc1ccc(C(=O)NC2CCN(C)CC2)cc1Nc1ccc2c(n1)N(C1CCOCC1)[C@H](C)C(=O)N2C has pIC50 that meets 7 or exceeds it?
no (0)

Could you please find out whether C[C@H]1C(=O)N(C)c2ccc(Nc3cccc(S(=O)(=O)N[C@H]4CC[C@H](N5CCN(CC6CC6)CC5)CC4)c3)nc2N1C1CCOCC1 has pIC50 that meets 7 or exceeds it?
no (0)
